# Lookup of reported TGI keyed by entry
system: NCI-H460 lung; assay: NCI tumour cell line growth inhibition, 48 h

Request: May I ask what TGI has been recorded for O=C(O)c1sccc1O ?
Result: > 100 µM

Request: Please give the measured TGI for this molecule: CN(C)CCNC(=O)c1cnn(C)c1[N+](=O)[O-]
Result: > 100 µM

Request: // returns reported TGI for input FC(F)(F)CNc1nccc(-c2cnn3ncccc23)n1
Result: > 25 µM

Request: Looking for the measured TGI of Cn1nc(N)nc1N=S(C)(C)=N , can you help?
Result: > 100 µM

Request: What does the data say about its TGI? Entry: CCOCCOc1ccc(OCCOCC)cc1
Result: > 73.7 µM

Request: Recorded TGI of [N-]=[N+]=Nc1ccc2c(c1)Sc1ccccc1N2CCCCN1CCN(Cc2ccc(C(=O)c3ccccc3)cc2)CC1 , please.
Result: > 100 µM

Request: TGI lookup needed for Cc1n[nH]c(=O)n1-c1cccnc1 , thanks.
Result: > 100 µM

Request: What does the data say about its TGI? Entry: CC(=O)OCC1OC(N2C(=S)N[C@H]([C@@H](O)[C@H](O)[C@H](O)CO)[C@H]2O)C(OC(C)=O)C(OC(C)=O)C1OC(C)=O (some centres undefined)
Result: > 100 µM

---
Request: Any idea what its TGI is? The molecule is CC(C)OP(=O)(c1ccccc1)c1ccc2c(c1)OCCOCCOCCOCCO2 (centres undefined)
Result: > 100 µM
